molecular target: Human LPA1 (Homo sapiens); experiment: Beta-Arrestin based assay for human LPA1R antagonists (PathHunter); settings: CHO cells stably expressing ProLink tagged human LPA1R; agonist LPA 0.5 micromolar
pEC50: −log10 of the molar value.
Consider the following compounds and their measured pEC50 readings.

{"Compound": "Cc1noc(-c2ccc(Nc3ccccc3C(=O)O)cc2)c1NC(=O)O[C@H](C)c1ccccc1Cl", "Target system": "Human LPA1 (Homo sapiens)", "pEC50": "< 6.30"}
{"Compound": "Cc1nsc(-c2ccc(-c3ccc(C4(C(=O)O)CC4)c(F)c3)cc2)c1NC(=O)O[C@H](C)c1ccccc1Cl", "Target system": "Human LPA1 (Homo sapiens)", "pEC50": "> 7.30"}
{"Compound": "C[C@@H](OC(=O)Nc1cncn1-c1ccc(-c2ccc(C3(C(=O)O)CC3)cc2)cc1)c1ccccc1", "Target system": "Human LPA1 (Homo sapiens)", "pEC50": "6.30 to 7.30"}
{"Compound": "Cc1noc(-c2ccc(-c3ccc(N4CCC[C@H](C(=O)O)C4)cc3)cc2)c1NC(=O)O[C@H](C)c1ccccc1Cl", "Target system": "Human LPA1 (Homo sapiens)", "pEC50": "6.30 to 7.30"}
{"Compound": "Cc1noc(-c2ccc(-c3ccc4c(c3)CCC4C(=O)O)cc2)c1NC(=O)O[C@H](C)c1ccccc1Cl (single isomer, unassigned) [Compound 26]", "Target system": "Human LPA1 (Homo sapiens)", "pEC50": "> 7.30"}
{"Compound": "Cc1nsc(-c2ccc(-c3ccc(C4(C(=O)O)CC4)cc3)cc2)c1NC(=O)O[C@H](C)c1ccccc1F", "Target system": "Human LPA1 (Homo sapiens)", "pEC50": "> 7.30"}

Kindly review the next compound as well.
Request: Consider the compound Cc1noc(-c2ccc(-c3ccc(C4(C(=O)O)COC4)cc3)cc2)c1NC(=O)O[C@H](C)c1ccccc1 and give its measured pEC50.
Response: > 7.30

* * *

List of pEC50 values.
target: Human LPA1 (Homo sapiens, UniProt Q92633); test: Beta-Arrestin based assay for human LPA1R antagonists (PathHunter); conditions: CHO cells stably expressing ProLink tagged human LPA1R; agonist LPA 0.5 micromolar
Sequence (Q92633 whole entry): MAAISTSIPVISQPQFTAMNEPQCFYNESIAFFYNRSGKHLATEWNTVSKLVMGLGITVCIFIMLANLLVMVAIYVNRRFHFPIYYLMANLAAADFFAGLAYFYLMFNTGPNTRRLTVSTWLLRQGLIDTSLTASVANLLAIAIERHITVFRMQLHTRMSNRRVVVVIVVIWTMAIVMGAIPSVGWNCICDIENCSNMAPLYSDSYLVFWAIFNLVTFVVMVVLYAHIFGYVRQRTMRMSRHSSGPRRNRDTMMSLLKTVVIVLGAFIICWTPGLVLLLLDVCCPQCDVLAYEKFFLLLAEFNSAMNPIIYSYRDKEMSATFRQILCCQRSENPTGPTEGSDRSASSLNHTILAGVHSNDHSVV
pEC50: −log10 of the molar value.

Request: I have this compound here, Cc1nsc(-c2ccc(-c3ccc(C(C(=O)O)c4ccccc4)cc3)cc2)c1NC(=O)O[C@H](C)c1ccccc1Cl (some centres unmarked) [Compound 69] , and I need its recorded pEC50.
Response: > 7.30

Request: Could you tell me which pEC50 is on file for Cc1noc(-c2ccc(-c3ccc(N4CC[C@@H](C(=O)O)C4)cc3)cc2)c1NC(=O)O[C@H](C)c1ccccc1 [Compound 133] ?
Response: < 6.30

Request: What does the record list as pEC50 for Cc1noc(-c2ccc(-c3ccc(C4(C(=O)O)CCOCC4)cc3)cc2)c1NC(=O)O[C@H](C)c1ccccc1 [Compound 242] ?
Response: > 7.30

Request: pEC50 for C[C@@H](OC(=O)Nc1ccn(-c2ccc(-c3ccc(C4(C(=O)O)CC4)cc3)cc2)n1)c1ccccc1 [Compound 163] ?
Response: < 6.30

Request: Please look up its pEC50: Cc1noc(-c2ccc(-c3ccc(N4CC[C@H](C(=O)O)C4)cc3)cc2)c1NC(=O)O[C@H](C)c1ccccc1 [Compound 132]
Response: 6.30 to 7.30

Request: Please report the recorded pEC50 for O=C(Nc1scnc1-c1ccc(-c2ccc(C3(C(=O)O)CC3)cc2)cc1)OCc1ccccc1 [Compound 108] .
Response: 6.30 to 7.30

Request: Please report the recorded pEC50 for Cc1cc(-c2ccc(-c3snc(C)c3NC(=O)O[C@H](C)c3ccccc3Cl)cc2)ccc1CC(=O)O [Compound 118] .
Response: 6.30 to 7.30

Request: Find the recorded pEC50 belonging to Cc1nc(NC(=O)O[C@H](C)c2ccccc2Cl)n(-c2ccc(-c3ccc(C4(C(=O)O)CC4)cc3)cc2)n1 [Compound 162] and report it.
Response: < 6.30

Request: Tell me the measured pEC50 of C[C@@H](OC(=O)Nc1sc2ccccc2c1-c1ccc(-c2ccc(C3(C(=O)O)CC3)cc2)cc1)c1ccccc1 [Compound 207] , please.
Response: < 6.30

Request: Requested field: pEC50. Item: Cc1nsc(-c2ccc(-c3ccc(C4(C(=O)O)CC4)cc3)cc2)c1NC(=O)O[C@@H](C)c1ccccc1 [Compound 236]
Response: < 6.30

Request: Which value of pEC50 has been reported for Cc1nsc(-c2ccc(-c3ccc(C4(C(=O)O)CC4)cc3)c(F)c2)c1NC(=O)O[C@H](C)c1ccccc1 [Compound 185] in the records?
Response: > 7.30

* * *

target: Human LPA1 (Homo sapiens, UniProt Q92633); assay: Beta-Arrestin based assay for human LPA1R antagonists (PathHunter); settings: CHO cells stably expressing ProLink tagged human LPA1R; agonist LPA 0.5 micromolar
pEC50: −log10 of the molar value.
Entries and their pEC50 values follow.

Consider the worked cases shown below.
{"Smiles code": "Cc1noc(-c2ccc(-c3ccc(CC(=O)O)cc3)cc2)c1NS(=O)(=O)Cc1ccccc1", "pEC50": "< 6.30"}
{"Smiles code": "C[C@@H](OC(=O)Nc1cncn1-c1ccc(-c2ccc(C3(C(=O)O)CC3)cc2)cc1)c1ccccc1Cl", "pEC50": "6.30 to 7.30"}
{"Smiles code": "C[C@@H](OC(=O)Nc1nnn(C)c1-c1ccc(-c2ccc(C3(C(=O)O)CC3)cc2)cc1)c1ccccc1", "pEC50": "< 6.30"}
{"Smiles code": "Cc1nsc(-c2ccc3c(c2)CCc2cc(C4(C(=O)O)CC4)ccc2-3)c1NC(=O)O[C@H](C)c1ccccc1", "pEC50": "> 7.30"}
{"Smiles code": "Cc1noc(C#Cc2ccc3cc(CC(=O)O)ccc3c2)c1NC(=O)O[C@H](C)c1ccccc1Cl", "pEC50": "6.30 to 7.30"}

Request: I'd like to know its pEC50. The compound in question is Cc1nsc(-c2ccc(-c3ccc(C4(C(=O)O)CC4)cc3)cc2)c1NC(=O)OCc1ccccc1Cl
Response: 6.30 to 7.30

Request: pEC50 for Cc1nsc(-c2ccc(-c3ccc(C4(C(=O)O)CC4)cc3)cc2Cl)c1NC(=O)O[C@H](C)c1ccccc1Cl ?
Response: > 7.30

Request: Bench note: what pEC50 did Cc1ccc2oc(-c3ccc(-c4ccc(C5(C(=O)O)CC5)cc4)cc3)c(NC(=O)O[C@H](C)c3ccccc3Cl)c2c1 show?
Response: < 6.30

Request: Param item = Cc1nsc(-c2ccc3cc(C#CC4(C(=O)O)CC4)ccc3c2)c1NC(=O)O[C@H](C)c1ccccc1 ; retrieve measured pEC50.
Response: 6.30 to 7.30

* * *

Biological target: Human LPA1 (Homo sapiens)
Experiment: Beta-Arrestin based assay for human LPA1R antagonists (PathHunter)
Conditions: CHO cells stably expressing ProLink tagged human LPA1R; agonist LPA 0.5 micromolar
Excerpt: Beta-Arrestin Based Assays for Human LPA1R Antagonists and Agonists A CHO cell line stably expressing the ProLink™ tagged human LPA1R was obtained from DiscoverX Inc, Fremont, Calif. […] End point luminescence data were plotted and fit to a 4 parameter logistic function to obtain IC50 values. […]
Listed below: EC50 values for each entry.

Record excerpt, results attached:
{"Molecule": "C[C@@H](OC(=O)Nc1c(Cl)nsc1-c1ccc(-c2ccc(C3(C(=O)O)CC3)cc2)cc1)c1ccccc1 [Compound 112]", "EC50": "< 50 nM"}
{"Molecule": "O=C(Nc1nncn1-c1ccc(-c2ccc(C3(C(=O)O)CC3)cc2)cc1)OCc1ccccc1 [Compound 160]", "EC50": "> 500 nM"}
{"Molecule": "Cn1ncc(-c2ccc(-c3ccc(C4(C(=O)O)CC4)cc3)cc2)c1NC(=O)OCc1ccccc1 [Compound 172]", "EC50": "< 50 nM"}
{"Molecule": "C[C@@H](OC(=O)Nc1c(-c2cc(Cl)c(-c3ccc(C4(C(=O)O)CC4)cc3)cc2F)cnn1C)c1ccccc1Cl [Compound 202]", "EC50": "< 50 nM"}
{"Molecule": "Cc1cc(-c2snc(C)c2NC(=O)O[C@H](C)c2ccccc2Cl)ccc1-c1ccc(C2(C(=O)O)CC2)cc1 [Compound 116]", "EC50": "< 50 nM"}

Request: Can you share its EC50? I mean this molecule: Cc1nsc(C#Cc2ccc3cc(CC(=O)O)ccc3c2)c1NC(=O)OCc1ccccc1 [Compound 91]
Response: > 500 nM

Request: Endpoint output: EC50 of C[C@@H](OC(=O)Nc1c(-c2cc(Cl)c(-c3ccc(C4(C(=O)O)CC4)cc3)cc2F)cnn1C)c1ccccc1 [Compound 201] . Value?
Response: < 50 nM

Request: What EC50 value was documented for this molecule, Cc1nsc(-c2ccc(-c3ccc(C4(C(=O)O)CC4)cc3)c(Cl)c2)c1NC(=O)O[C@H](C)c1ccccc1 [Compound 188] ?
Response: < 50 nM

Request: For C[C@@H](OC(=O)Nc1oc2ccccc2c1-c1ccc(-c2ccc(C3(C(=O)O)CC3)cc2)cc1)c1ccccc1 [Compound 208] , what is its reported EC50?
Response: > 500 nM

Request: Param item = Cc1noc(-c2nc3cc4oc(C5(C(=O)O)CC5)nc4cc3o2)c1NC(=O)O[C@H](C)c1ccccc1 [Compound 178] ; retrieve measured EC50.
Response: 50 to 500 nM

Request: GET /values?readout=EC50&item= Cc1nnn(-c2ccc(-c3ccc(C4(C(=O)O)CC4)cc3)cc2)c1NC(=O)O[C@H](C)c1ccccc1 [Compound 65]
Response: < 50 nM

Request: Item under review: Cc1nsc(-c2ccc(-c3ccc(C4(C(=O)O)COC4)cc3)cc2)c1NC(=O)O[C@H](C)c1ccccc1 [Compound 241] . Reported EC50?
Response: 50 to 500 nM

Request: Recorded EC50 for C[C@@H](OC(=O)Nc1c(-c2ccc(-c3ccc(C4(C(=O)O)CC4)cc3)c(F)c2)cnn1C)c1ccccc1 [Compound 203] , please?
Response: < 50 nM

Request: What value of EC50 has been recorded for this entry: Cc1nsc(-c2ccc3c(c2)CCc2cc(C4(C(=O)O)CC4)ccc2-3)c1NC(=O)O[C@H](C)c1ccccc1Cl [Compound 249]
Response: < 50 nM
